relative KD to parent overview
Molecular target: T1, His-tagged CEACAM1 (human, UniProt P13688 35-428)
T1 construct: 45 kDa SPR analyte; also called CEACAM1-HIS; CEACAM1 analyte
T1 sequence: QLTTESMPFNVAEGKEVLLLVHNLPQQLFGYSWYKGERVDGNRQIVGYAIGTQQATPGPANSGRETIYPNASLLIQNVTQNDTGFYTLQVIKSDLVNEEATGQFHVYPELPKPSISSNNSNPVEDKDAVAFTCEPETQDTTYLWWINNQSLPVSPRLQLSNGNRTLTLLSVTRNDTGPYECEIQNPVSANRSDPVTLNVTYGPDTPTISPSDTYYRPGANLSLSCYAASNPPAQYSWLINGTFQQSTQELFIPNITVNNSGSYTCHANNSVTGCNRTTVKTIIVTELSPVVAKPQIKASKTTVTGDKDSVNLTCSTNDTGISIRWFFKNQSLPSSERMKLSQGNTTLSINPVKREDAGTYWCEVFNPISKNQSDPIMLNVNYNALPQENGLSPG
Assay: SPR single-cycle, supernatant IgG captured
Give the figure only, with no unit attached.

Worked set:
binder	property_name	measured
CP08B04/Vκ8 S29A (antibody, IgG4, V domains shown, IgG4 (S241P), kappa) VH: EVQLLESGGGLVQPGGSLRLSCAASGFIFSSHGMSWVRQAPGKGLEWVATISSGGTYTYYPDSVKGRFTISRDNSKNTLYLQMNSLKAEDTAMYYCARHDFDYFPAWFALWGQGTLVTVSS VL: EIVLTQSPATLSLSPGERATLSCRANSAVSYMYWYQQKPGQAPRPWIYLTSNRATGVPARFSGSGSGTDYTLTISSLEPEDFAVYYCQQWSSNPPTFGQGTKLEIK	relative KD to parent	1.4
CP08C04/Vκ8 S29A (antibody, IgG4, V domains shown, IgG4 (S241P), kappa) VH: EVQLLESGGGLVQPGGSLRLSCAASGFTFSSHGMSWVRQAPGKGLEWVATISSGGTYTYYPDSVKGRFTISRDNSKNTLYLQMNSLKAEDTAMYYCARHDFDYDAAWFAYWGQGTLVTVSS VL: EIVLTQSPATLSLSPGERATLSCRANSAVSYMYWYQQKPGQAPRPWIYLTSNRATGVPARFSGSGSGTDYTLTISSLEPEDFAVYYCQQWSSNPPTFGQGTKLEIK	relative KD to parent	0.5

Moving on to the next binder.
relative KD to parent for CP08F07/Vκ8 S29A (antibody, IgG4, V domains shown, IgG4 (S241P), kappa) VH: EVQLLESGGGLVQPGGSLRLSCAASGFTFTDHAISWVRQAPGKGLEWVATISSGGTYTYYPDSVKGRFTISRDNSKNTLYLQMNSLKAEDTAMYYCARHDFDYDAAWFAYWGQGTLVTVSS VL: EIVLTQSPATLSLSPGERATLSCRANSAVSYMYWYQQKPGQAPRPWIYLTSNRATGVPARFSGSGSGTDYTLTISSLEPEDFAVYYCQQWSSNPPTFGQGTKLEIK is 1.2
